# assay target: T1, FZD8 CRD (Homo sapiens, UniProt Q9H461)
# T1 construct: K31-D155; GPI anchor signal (C); expressed in transfected cells; host or cells: CHO cells, lentiviral pLenti-puro
# T1 sequence (Q9H461 31-155): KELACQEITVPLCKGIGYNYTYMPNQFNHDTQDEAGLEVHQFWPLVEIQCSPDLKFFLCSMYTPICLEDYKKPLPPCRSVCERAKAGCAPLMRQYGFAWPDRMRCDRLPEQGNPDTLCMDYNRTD
# measurement protocol: Immunofluorescence of anti-FZD5 Fab binding to CHO cells overexpressing Frizzled CRD
# Set-up: key: −: no binding; +: very weak binder; ++: weak binder; +++: good binder; ++++: very good binder
measurement kind: Immunofluorescence binding, Frizzled CRD overexpressed on CHO cells: FZD8

Fab-2920: anti-FZD5 Fab with antibody variable region Fv-2920; CDR SEQ ID NOs: 35, 36, 59, 98, 135, 170 (antibody, V domains shown) VH: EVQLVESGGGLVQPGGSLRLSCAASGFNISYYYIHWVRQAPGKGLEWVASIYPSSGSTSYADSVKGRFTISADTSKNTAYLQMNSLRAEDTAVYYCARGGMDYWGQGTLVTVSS VL: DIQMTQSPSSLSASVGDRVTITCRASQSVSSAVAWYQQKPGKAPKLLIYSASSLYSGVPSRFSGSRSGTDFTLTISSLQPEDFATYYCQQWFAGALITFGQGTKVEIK = +
Fab-2907: anti-FZD5 Fab with antibody variable region Fv-2907; CDR SEQ ID NOs: 35, 36, 46, 85, 122, 159 (antibody, V domains shown) VH: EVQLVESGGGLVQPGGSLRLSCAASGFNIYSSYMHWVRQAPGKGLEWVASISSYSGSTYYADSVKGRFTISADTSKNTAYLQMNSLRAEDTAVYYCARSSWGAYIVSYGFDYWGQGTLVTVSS VL: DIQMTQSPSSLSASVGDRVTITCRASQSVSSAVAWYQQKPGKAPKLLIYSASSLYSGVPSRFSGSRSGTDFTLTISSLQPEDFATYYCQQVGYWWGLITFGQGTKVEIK = +
